target desc: human PAD4 (Homo sapiens)
Construct: human PAD4 (NM_012387), A2-P663, was PCR amplified; His-SUMO (N, cleaved yes)
test: In vitro PAD4 BAEE biochemical assay
condition: BAEE substrate 3 mM, 5 nM PAD4, 2 mM calcium chloride; geometric mean of multiple experiments
// returns N unless IC50 is strictly below 50 nM, in which case Y

Consider the following illustrative entries.
COc1cc(C(=O)N2CCC[C@@H](N)C2)cc2nc(-c3cc4ccc5nc4n3CC3(CCCCCC(=O)N[C@@H]5C)CC3)n(C)c12 N
[2H]C1([2H])CCCC[C@@H]2C[C@H]2C(=O)N[C@H](C)c2ccc3cc(-c4nc5cc(C(=O)N6C[C@H](N)[C@@H]7CC[C@H]6C7)cc(F)c5n4C4CC4)n1c3n2 Y
COc1cc(C(=O)N2[C@H]3CC[C@@H]2[C@H](N)C3)cc2nc(-c3cc4ccc5nc4n3CCCCOc3ccccc3C(=O)N[C@@H]5C)n(C)c12 N
COc1cc(C(=O)N2C[C@H](N)[C@@H]3CC[C@H]2C3)cc2nc(-c3cc4ccc5nc4n3CC(F)(F)CCCCC(C)(C)C(=O)N[C@@H]5C)n(C3CC3)c12 N

Request: Please let me know if CC(C)n1c(-c2cc3ccc4nc3n2CCCCCc2nc(Cl)ccc2C(=O)N[C@@H]4C)nc2cc(C(=O)N3C[C@H](N)[C@@H]4CC[C@H]3C4)cc(F)c21 shows IC50 below 50 nM.
Result: N

Request: Please let me know if COc1cc(C(=O)N2[C@H]3CC[C@@H]2[C@H](N)C3)cc2nc(-c3cc4ccc5nc4n3CC3(CC3)COCCC(=O)N[C@@H]5C)c(C)n12 shows IC50 below 50 nM.
Result: Y

---

target desc: human PAD4 (Homo sapiens, UniProt Q9UM07)
Construct: human PAD4 (NM_012387), A2-P663, was PCR amplified; His-SUMO (N, cleaved yes)
Sequence (Q9UM07 2-663): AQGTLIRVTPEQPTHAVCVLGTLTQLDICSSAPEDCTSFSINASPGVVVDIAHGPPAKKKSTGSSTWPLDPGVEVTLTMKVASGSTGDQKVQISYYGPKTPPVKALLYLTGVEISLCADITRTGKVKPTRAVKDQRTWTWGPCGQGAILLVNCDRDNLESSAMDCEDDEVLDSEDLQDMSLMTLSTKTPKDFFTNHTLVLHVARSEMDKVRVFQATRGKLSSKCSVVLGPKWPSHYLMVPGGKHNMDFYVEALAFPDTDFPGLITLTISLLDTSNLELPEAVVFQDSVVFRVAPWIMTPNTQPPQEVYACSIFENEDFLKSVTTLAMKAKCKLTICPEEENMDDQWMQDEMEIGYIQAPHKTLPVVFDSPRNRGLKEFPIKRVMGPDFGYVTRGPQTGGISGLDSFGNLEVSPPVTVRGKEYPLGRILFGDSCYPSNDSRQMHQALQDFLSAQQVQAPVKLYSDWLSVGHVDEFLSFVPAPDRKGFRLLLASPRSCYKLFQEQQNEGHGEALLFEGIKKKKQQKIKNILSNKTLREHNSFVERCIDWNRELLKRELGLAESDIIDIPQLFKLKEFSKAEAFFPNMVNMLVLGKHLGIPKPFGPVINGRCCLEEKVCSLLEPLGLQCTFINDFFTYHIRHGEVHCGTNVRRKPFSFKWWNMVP
test: In vitro PAD4 BAEE biochemical assay
condition: BAEE substrate 3 mM, 5 nM PAD4, 2 mM calcium chloride; geometric mean of multiple experiments
From the text: In Vitro PAD4 BAEE Biochemical Assay The enzymatic activity of human PAD4 was monitored in a biochemical assay in the presence or absence of compounds using the small peptidyl arginine mimic BAEE (Na-Benzoyl-L-arginine ethyl ester hydrochloride) as substrate. PAD4 activity led to deimination of BAEE and release of ammonia. Levels of ammonia were monitored by using an amine coupling reaction and were indicative of PAD4 enzymatic activity. […]
// returns -1 unless IC50 is strictly below 100 nM, in which case 1

Consider the following illustrative entries.
compound	label class
COc1cc(C(=O)N2C[C@H](N)[C@@H]3CC[C@H]2C3)cc2nc(-c3cc4ccc5nc4n3CCCCCc3ccc(F)cc3C(=O)N[C@@H]5C)n(C3CC3)c12 [Example 953]	1
C[C@H]1NC(=O)[C@@H]2C[C@H]2CCCCCn2c(-c3nc4cc(C(=O)N5CC6(CCCNC6)C5)c(F)cc4n3C3CC3)cc3ccc1nc32 [Example 569]	-1
C[C@H]1NC(=O)[C@@H]2C[C@H]2CCCCCn2c(-c3nc4cc(C(=O)N[C@H]5CNCC[C@@H]5F)c(F)c(F)c4n3C3CC3)cc3ccc1nc32 (single isomer, unassigned) [Example 275]	1

Request: Please let me know if COc1cc(C(=O)N[C@H]2CNCC[C@@H]2C(F)(F)F)cc2nc(-c3cc4ccc5nc4n3CCCCCCC(C)(C)C(=O)N[C@@H]5C)n(C)c12 [Example 380] shows IC50 below 100 nM.
Result: -1

Request: Please let me know if C[C@H]1NC(=O)[C@@H]2C[C@H]2CCCCCn2c(-c3nc4cc(C(=O)N[C@@H]5CCCNC5)c(F)cc4n3C3CC3)cc3ccc1nc32 [Example 568] shows IC50 below 100 nM.
Result: 1

Request: Please let me know if COc1cc(C(=O)N2[C@H]3CC[C@@H]2[C@H](N)C3)cc2nc(-c3cc4ccc5nc4n3CCCCCCCC(=O)N3C[C@@H]4C[C@@H]4[C@H]53)n(C)c12 [Example 135] shows IC50 below 100 nM.
Result: 1

Request: Please let me know if COc1cc(C(=O)N2C[C@H]3CC[C@@H]2[C@@H]3N)cc2nc(-c3cc4ccc5nc4n3CCCCCCCCCC(=O)N[C@@H]5C)c(C)n12 [Example 290] shows IC50 below 100 nM.
Result: -1
